# experiment_summary: Pharmacokinetics analysis in mice (oral; plasma and brain)
# Assay type: in vivo
# condition_label: male, C57BL/6J, mouse, brain, 10 mg/kg, 2 h, read-out: Brain to plasma ratio 2 h
property_measured: Kp at 2 h
Just the number.

Give reported Kp at 2 h value for Cc1cc([C@H]2CN(c3cc(F)c4c(N)nncc4c3)CCN2c2cccc(F)c2)no1 [Compound (R)-8] 0.7

----------
# target_under_test: human C1s (Homo sapiens, UniProt P09871)
# Construct: Recombinant human C1s (358–688 aa) fused with both the N-terminal IgG signal peptide; IgG signal peptide (N); His tag (C); made in house; host or cells: HEK293 cells
# Sequence (P09871 358-688): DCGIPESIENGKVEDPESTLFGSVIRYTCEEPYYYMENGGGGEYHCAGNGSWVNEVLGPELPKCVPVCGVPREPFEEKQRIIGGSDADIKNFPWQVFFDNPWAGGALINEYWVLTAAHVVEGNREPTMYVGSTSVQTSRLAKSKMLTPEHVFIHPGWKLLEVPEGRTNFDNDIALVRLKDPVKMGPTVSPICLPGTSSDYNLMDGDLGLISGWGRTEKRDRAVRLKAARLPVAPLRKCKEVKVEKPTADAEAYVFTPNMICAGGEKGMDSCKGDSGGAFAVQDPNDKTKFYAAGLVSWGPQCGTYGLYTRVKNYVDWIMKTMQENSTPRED
# experiment_summary: Human C1s enzyme assay
# Format: biochemical
# condition_label: 95% confidence intervals in parentheses
Hi! Could you tag entries with IC50 below 1 µM as Criterion met, and those at or above as Criterion not met? Much appreciated.

For Cc1ccc(C(=O)N2CCN(c3ccc4cnncc4c3)CC2)cc1 [Compound 4d] , is the recorded IC50 below the cut-off of 1 µM? Criterion not met

For Cc1cc([C@@H]2CN(c3cc(F)c4c(N)nncc4c3)CCN2c2cccc(F)c2)no1 [(S)-8] , is the recorded IC50 below the cut-off of 1 µM? Criterion not met

For Nc1nncc2cc(C3CCN(c4ccccc4)CC3)ccc12 [Compound 5c] , is the recorded IC50 below the cut-off of 1 µM? Criterion not met
